Origin of values: patent USRE47223

Molecular target: T1, CA125, human TAT10772 shed antigen (human, UniProt Q8WXI7 1-14451, limits assumed)
T1 construct: domain: entire shed antigen; Bought reagent; also called CA125 polypeptide
Test: ELISA, IgG, CA125
Measured Attribute: pKd
One number for each entry, as −log10 of the molar value.

Example binders with recorded pKd:
- Binder: "3A5v2 (SEQ ID NO: 199) (antibody, V domains shown, Humanized IgG) VH: EVQLVESGGGLVQPGGSLRLSCAASGYSITNDYAWNWVRQAPGKGLEWVGYINYSGYTTYNPSLKSRFTISRDTSKNTFYLQMNSLRAEDTAVYYCARWASGLSHWGQGTLVTVSS VL: DIQMTQSPSSLSASVGDRVTITCKASDLIHNWLAWYQQKPGKAPKLLIYGATSLETGVPSRFSGSGSGTDFTLTISSLQPEDFATYYCQQYWTTPFTFGQGTKVEIKR"
  Measured Attribute: "pKd"
  Reported: 9.10
- Binder: "3A5 chimera (mu3A5-H; SEQ ID NO: 11) (antibody, V domains shown, IgG; also called chimeric 3A5; chimeric antibody) VH: DVQLQESGPGLVNPSQSLSLTCTVTGYSITNDYAWNWIRQFPGNKLEWMGYINYSGYTTYNPSLKSRISITRDTSKNQFFLHLNSVTTEDTATYYCARWDGGLTYWGQGTLVTVSA VL: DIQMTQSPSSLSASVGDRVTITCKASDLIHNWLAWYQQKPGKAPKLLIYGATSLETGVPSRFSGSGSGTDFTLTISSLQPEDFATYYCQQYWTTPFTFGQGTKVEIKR"
  Measured Attribute: "pKd"
  Reported: 9.52

[ask] Given the binder 3A5v3 (SEQ ID NO: 200) (antibody, V domains shown, Humanized IgG) VH: EVQLVESGGGLVQPGGSLRLSCAASGYSITNDYAWNWVRQAPGKGLEWVGYINYSGYTTYNPSLKSRFTISRDTSKNTFYLQMNSLRAEDTAVYYCARWASGLSYWGQGTLVTVSS VL: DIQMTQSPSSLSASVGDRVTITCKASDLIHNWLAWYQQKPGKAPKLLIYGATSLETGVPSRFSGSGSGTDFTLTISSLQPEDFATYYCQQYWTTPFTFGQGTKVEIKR , what is its reported pKd?
[reply] 9.30
